# system-name: trans-locked inhibitor
# assay-details: NMR titration
# recorded-conditions: phospho-S3, trans-locked alkene isostere
measure: pKd
Interpret pKd as the negative base-10 log of the concentration measured in mol/L.

Requested field: pKd. Item: ADEEKLPPGWEKRMSRSSGRVYYFNHITNASQWERPSGNSS [Pin1 (WW domain site, full-length Pin1) WW, Q13526]
4.28
